- target: beta Klotho and FGFR1c (Fibroblast Growth Factor Receptor isoform 1c) expressed on the cell surface of a proprietary stable cell line (HEK293)
- method: cell-based or functional assay
[ ]: non-standard residue; d: D form. Phe(4-Ac) = CC(=O)c1ccc(C[C@H](N)C(=O)O)cc1
Measured Emax (%) relative to WT bFGF-21, Elk1 luciferase reporter assay values are reported for all entries that follow.
Just the number in %, nothing appended.

Past entries and their recorded results:
[
  {
    "binder": "bFGF-21-K91-30KPEG (ligand, not fully specified; also: PEG: linear aminooxy-PEG) HPIPDSSPLLQFGGQVRQRYLYTDDAQETEAHLEIRADGTVVGAARQSPESLLELKALKPGVIQILGVKTSRFLCQGPDGKLYGSLHFDP[Phe(4-Ac)](PEG 30 kDa)ACSFRELLLEDGYNVYQSETLGLPLRLPPQRSSNRDPAPRGPARFLPLPGLPAAPPDPPGILAPEPPDVGSSDPLSMVEPSYGRSPSYTS",
    "readout_unit": "%",
    "readout_value": 57
  },
  {
    "binder": "bFGF-21-R131-30KPEG (ligand, not fully specified; also: PEG: linear aminooxy-PEG) HPIPDSSPLLQFGGQVRQRYLYTDDAQETEAHLEIRADGTVVGAARQSPESLLELKALKPGVIQILGVKTSRFLCQGPDGKLYGSLHFDPKACSFRELLLEDGYNVYQSETLGLPLRLPPQRSSNRDPAP[Phe(4-Ac)](PEG 30 kDa)GPARFLPLPGLPAAPPDPPGILAPEPPDVGSSDPLSMVEPSYGRSPSYTS",
    "readout_unit": "%",
    "readout_value": 38
  }
]

[in] Indicate its recorded Emax (%) relative to WT bFGF-21, Elk1 luciferase reporter assay; the binder in question is bFGF-21-G77-30KPEG (ligand, not fully specified; also: PEG: linear aminooxy-PEG) HPIPDSSPLLQFGGQVRQRYLYTDDAQETEAHLEIRADGTVVGAARQSPESLLELKALKPGVIQILGVKTSRFLCQ[Phe(4-Ac)](PEG 30 kDa)PDGKLYGSLHFDPKACSFRELLLEDGYNVYQSETLGLPLRLPPQRSSNRDPAPRGPARFLPLPGLPAAPPDPPGILAPEPPDVGSSDPLSMVEPSYGRSPSYTS
[out] 50
